Data provenance is patent US9072791B2.

- assay-comment: Photostability test in glass vials not shielded from light: gelation, molecular weight, percent conjugation of MTX (Example 4(2))
- Assay type: physicochemical
- test-settings: additive 1 mg/ml; 4000 Lux, 25° C., not shielded from light
- Experimental: Various photostabilizers (methyl p-hydroxybenzoate (methyl paraben), salicylic acid Na, thiosulfuric acid Na, thioglycolic acid Na, N-acetyltryptophan, and tryptophan) were each dissolved in a preparation buffer (0.9% NaCl containing 2 mM phosphate buffer, pH 7.4) to give a concentration of 1 or 10 mg/ml and thereafter filtered aseptically by passage through a 0.2-μm filter (Millex GV). […]
In this section we review reported Molecular weight (×10^4), irradiation time 25 h values for a set of molecules.

Consider the reported Molecular weight (×10^4), irradiation time 25 h for these molecules:
molecule | observed-result
N[C@@H](Cc1c[nH]c2ccccc12)C(=O)O | 171 ×10^4
O=C([O-])CS.[Na+] [Na thioglycolate, sodium thioglycolate] | 136 ×10^4
COC(=O)c1ccc(O)cc1 [Methyl paraben, methyl p-hydroxybenzoate] | 155 ×10^4

q: Please look up its Molecular weight (×10^4), irradiation time 25 h: "CC(=O)N[C@@H](Cc1c[nH]c2ccccc12)C(=O)O"
a: 164 ×10^4

---

- assay-comment: Photostability test with additional light-shielding film LUMICOOL 1905 (Example 6)
- Type: physicochemical
- test-settings: additive 1 mg/mL; vial wrapped with LUMICOOL 1905
In this section we review reported Percent Conjugation (%), irradiation time 0 h values for a set of molecules.
Just the number please, in %, no unit attached.

q: Please look up its Percent Conjugation (%), irradiation time 0 h: "N[C@@H](Cc1c[nH]c2ccccc12)C(=O)O"
a: 2.2

q: Please look up its Percent Conjugation (%), irradiation time 0 h: "CC(=O)N[C@@H](Cc1c[nH]c2ccccc12)C(=O)O"
a: 2.2

q: Please look up its Percent Conjugation (%), irradiation time 0 h: COC(=O)c1ccc(O)cc1 [Methyl paraben, methyl p-hydroxybenzoate]
a: 2.2

q: Please look up its Percent Conjugation (%), irradiation time 0 h: O=C([O-])c1ccccc1O.[Na+] [Na salicylate, sodium salicylate]
a: 2.2

q: Please look up its Percent Conjugation (%), irradiation time 0 h: O=C([O-])CS.[Na+] [Na thioglycolate, sodium thioglycolate]
a: 2.1

q: Please look up its Percent Conjugation (%), irradiation time 0 h: O=S([O-])([O-])=S.[Na+].[Na+] [Na thiosulfate, sodium thiosulfate]
a: 2.3

---

- assay-comment: Photostability test with additional light-shielding film LUMICOOL 1905 (Example 6)
- Format: physicochemical
- test-settings: additive 10 mg/mL; vial wrapped with LUMICOOL 1905
In this section we review reported Percent Conjugation (%), irradiation time 150 h values for a set of molecules.
Just the number please, in %, no unit attached.

Consider the reported Percent Conjugation (%), irradiation time 150 h for these molecules:
molecule | readout-units | observed-result
O=C([O-])c1ccccc1O.[Na+] [Na salicylate, sodium salicylate] | % | 2.2
N[C@@H](Cc1c[nH]c2ccccc12)C(=O)O [Tryptophan, tryptophan] | % | 2.2
CC(=O)N[C@@H](Cc1c[nH]c2ccccc12)C(=O)O [N-acetyltryptophan] | % | 2.2
O=C([O-])CS.[Na+] [Na thioglycolate, sodium thioglycolate] | % | 2.1

Here's the next entry for you.
q: Please look up its Percent Conjugation (%), irradiation time 150 h: O=S([O-])([O-])=S.[Na+].[Na+] [Na thiosulfate, sodium thiosulfate]
a: 2.2

---

- assay-comment: Photostability test with additional light-shielding film LUMICOOL 1905 (Example 6);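 further: molecular weight and drug conjugation percentage of the test conjugate, both determined by the method given for the first production procedure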
- Type: physicochemical
- test-settings: additive 1 mg/mL; vial wrapped with LUMICOOL 1905
experimental-endpoint: Molecular weight (×10^4), irradiation time 150 h

compound | observed-result
COC(=O)c1ccc(O)cc1 [Methyl paraben, methyl p-hydroxybenzoate] | 184 ×10^4
CC(=O)N[C@@H](Cc1c[nH]c2ccccc12)C(=O)O | 172 ×10^4
N[C@@H](Cc1c[nH]c2ccccc12)C(=O)O | 176 ×10^4
O=C([O-])CS.[Na+] [Na thioglycolate, sodium thioglycolate] | 123 ×10^4

q: Please look up its Molecular weight (×10^4), irradiation time 150 h: O=S([O-])([O-])=S.[Na+].[Na+] [Na thiosulfate, sodium thiosulfate]
a: 186 ×10^4

q: Please look up its Molecular weight (×10^4), irradiation time 150 h: O=C([O-])c1ccccc1O.[Na+] [Na salicylate, sodium salicylate]
a: 184 ×10^4

---

In this section we review reported Percent Conjugation (%) of MTX, irradiation time 50 h values for a set of molecules.
- assay-comment: Photostability test in glass vials not shielded from light: gelation, molecular weight, percent conjugation of MTX (Example 4(2))
- Type: physicochemical
- test-settings: additive 1 mg/ml; 4000 Lux, 25° C., not shielded from light
Just the number please, in %, no unit attached.

molecule | observed-result
O=C([O-])CS.[Na+] [Na thioglycolate, sodium thioglycolate] | 2.2
COC(=O)c1ccc(O)cc1 [Methyl paraben, methyl p-hydroxybenzoate] | 2.1
N[C@@H](Cc1c[nH]c2ccccc12)C(=O)O | 2.2

Here's the next entry for you.
q: Please look up its Percent Conjugation (%) of MTX, irradiation time 50 h: "CC(=O)N[C@@H](Cc1c[nH]c2ccccc12)C(=O)O"
a: 2.3
